All values here come from PubChem BioAssay AID1159580.

Assay: chemical genetic growth profiling, strain panel (AID 1159580);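 also: tested at 20 µM; growth read once vehicle control cultures reached saturation at 30 °C; 1 = growth at the plate median or of vehicle wells; lower values mean less growth of the strain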
Conditions: S. cerevisiae deletion strains, growth OD, locus YCL029C, strain bik1, stronger effect = lower value
About 2,000 (36%) of roughly 5,500 compounds were called active. Another 18% or so got no clear call; they are omitted. Some of the results follow.
TEST_READOUT: normalized growth
The answer should be written as a number, with no unit following it.

Field normalized growth (entry CS(=O)(=O)c1ccc(C2=C(c3ccccc3)C(=O)OC2)cc1 ) reads 0.994

Field normalized growth (entry COc1ccc2c(c1)OCc1c-2oc2cc(OC)ccc12 ) reads 1

Field normalized growth (entry NC(=O)c1ccc[n+]([C@@H]2O[C@H](COP(=O)([O-])OP(=O)(O)OC[C@H]3O[C@@H](n4cnc5c(N)ncnc54)[C@H](O)[C@@H]3O)[C@@H](O)[C@H]2O)c1 ) reads 0.99

Field normalized growth (entry CC(=O)[C@H]1CCC2C3CCC4=CC(=O)CC[C@]4(C)C3CC[C@@]21C (stereo not given in full) ) reads 0.735

Field normalized growth (entry Cc1c(O)c(C(=O)CC(C)C)c2oc3c(C(=O)CC(C)C)c(O)c(C)c(O)c3c2c1O ) reads 1.01

Field normalized growth (entry CC[C@H](/C=C/C(C)C1CCC2C3CCC4=CC(=O)CC[C@]4(C)C3CC[C@]12C)C(C)C (stereo not given in full) ) reads 1.02

Field normalized growth (entry NCCSSCCN ) reads 1.03

Field normalized growth (entry COc1ccc2c(C)cc(=O)oc2c1 ) reads 1.03

Field normalized growth (entry COc1cc2c(cc1OC)C(=O)OC2 ) reads 1.01

Field normalized growth (entry CC(=O)N[C@@H](CC(C)C)C(=O)O ) reads 0.97

---

Assay: chemical genetic growth profiling, strain panel (AID 1159580);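 also: tested at 20 µM; growth read once vehicle control cultures reached saturation at 30 °C; 1 = growth at the plate median or of vehicle wells; lower values mean less growth of the strain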
Details: S. cerevisiae deletion strains, growth OD, locus YGR040W, strain KSS1, stronger effect = lower value
Out of some 5,500 compounds screened, about 2,000 (36%) were called active. Inconclusive results (about 18%) are left out. Some of the results follow.
Sorting guide: entries reporting normalized growth beneath 0.9 go in the rule met pile, the rest go in the rule not met pile.

Past entries and their recorded results:
{"MOLECULE": "COc1ccc(CN2CSC(=S)N(Cc3ccc(OC)cc3)C2)cc1", "CLASS_NAME": "rule not met"}
{"MOLECULE": "Cc1ccc(OCC2SCCN2C(=O)c2ccc(C(F)(F)F)cc2)c([N+](=O)[O-])c1 (stereo not given)", "CLASS_NAME": "rule not met"}

Input line: Is normalized growth strictly under 0.9 for the entry O=C(N/C=C/c1ccsc1)Nc1cc(C(F)(F)F)cc(C(F)(F)F)c1 ?
Output line: rule met

Input line: Is normalized growth strictly under 0.9 for the entry O=C(Oc1ccc(C(F)(F)F)cc1[N+](=O)[O-])c1cccc(Cl)c1 ?
Output line: rule met

Input line: Is normalized growth strictly under 0.9 for the entry Cc1cc(C(=O)Nc2ccc(Cl)cc2)nn1C(C)(C)C ?
Output line: rule not met

---

# maps each entry to its normalized growth
Experiment: chemical genetic growth profiling, strain panel (AID 1159580);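 also: tested at 20 µM; growth read once vehicle control cultures reached saturation at 30 °C; 1 = growth at the plate median or of vehicle wells; lower values mean less growth of the strain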
Details: S. cerevisiae deletion strains, growth OD, locus YKL160W, strain elf1, stronger effect = lower value
Among all 5,500 compounds or so, about 2,000 (36%) were called active. Another 18% or so got no clear call; they are omitted. The list shows a part of the results.
The answer should be written as a number, with no unit following it.

Before answering, review these 6 worked examples.
{"COMPOUND": "CC1=C(C/C=C(\\C)CCC[C@H](C)CCC[C@H](C)CCCC(C)C)C(=O)c2ccccc2C1=O", "MEASUREMENT": 0.998}
{"COMPOUND": "CO[C@H]1[C@H](O)[C@H](O[C@H]2CC[C@]3(C)C4CC[C@]5(C)C(C6=CC(=O)OC6)CC[C@]5(O)C4CC[C@@H]3C2)O[C@@H](C)[C@@H]1O (some centres not stated)", "MEASUREMENT": 0.989}
{"COMPOUND": "OCCN1C[C@@H](O)[C@@H](O)C(O)C1CO (some centres not stated)", "MEASUREMENT": 1.01}
{"COMPOUND": "CC1=C(/C=C/C(C)=C/C=C/C(C)=C/C=C/C=C(C)/C=C/C=C(C)/C=C/C2=C(C)C(=O)C(O)CC2(C)C)C(C)(C)CC(O)C1=O (configuration not stated)", "MEASUREMENT": 1.02}
{"COMPOUND": "CC1=C(/C=C/C(C)=C/C=C/C(C)=C/C=C/C=C(C)/C=C/C=C(C)/C=C/C(=O)[C@]2(C)C[C@@H](O)CC2(C)C)C(C)(C)C[C@H](O)C1", "MEASUREMENT": 1.02}
{"COMPOUND": "CC1=C(/C=C/C(C)=C/C=C/C(C)=C/C=C/C=C(C)/C=C/C=C(C)/C=C/C2=C(C)C(=O)CCC2(C)C)C(C)(C)CCC1=O", "MEASUREMENT": 1.07}

Here's the next entry for you.
Field normalized growth (entry CCCCCCCCCCCCCCCC(=O)OC/C=C(C)/C=C/C=C(C)/C=C/C1=C(C)CCCC1(C)C ) reads 1.02
